Tested on: SUM229PE
Experiment: GRmax, 72 h; higher = less effect;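 further: breast cell lines in 384-well plates, nine doses across a 10^4 range, Dye Drop imaging of viable cells vs DMSO and time-zero plates, GR 0 means no net growth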
measured_property: GRmax, 72 h

CC(C)Nc1cc(-c2c[nH]c(C(=O)N[C@H](CO)c3cccc(Cl)c3)c2)c(Cl)cn1 [BVD523] (max 10 µM) :: 0.265 GR
CCNC(=O)c1noc(-c2cc(C(C)C)c(O)cc2O)c1-c1ccc(CN2CCOCC2)cc1 [Luminespib/NVP-AUY922] (max 1 µM) :: -0.293 GR
CC(=O)O[C@H]1C(=O)[C@@]2(C)[C@H]([C@H](OC(=O)c3ccccc3)[C@]3(O)C[C@H](OC(=O)[C@H](O)[C@@H](NC(=O)c4ccccc4)c4ccccc4)C(C)=C1C3(C)C)[C@]1(OC(C)=O)CO[C@@H]1C[C@@H]2O [Paclitaxel] (max 1 µM) :: -0.377 GR
C[C@@H]1COCCN1c1cc(C2([S@](C)(=N)=O)CC2)nc(-c2cc[nH]c3nccc2-3)n1 [AZD6738] (max 10 µM) :: -0.0688 GR
O=C1NC(=NCc2cccs2)SC1=Cc1ccc2ncccc2c1 [R0-3306] (max 10 µM) :: -0.07 GR
CNCc1ccc(-c2[nH]c3cc(F)cc4c3c2CCNC4=O)cc1 [Rucaparib] (max 10 µM) :: 0.888 GR
CO[C@@H](C)Cn1c(=O)n(C)c2cnc3ccc(-c4cncc(C(C)(C)O)c4)cc3c21 (max 10 µM) :: 0.0211 GR
COc1cc2nccc(Oc3ccc(NC(=O)C4(C(=O)Nc5ccc(F)cc5)CC4)cc3)c2cc1OC [Cabozantinib] (max 10 µM) :: 0.199 GR
CCc1cnn2c(NCc3ccc[n+]([O-])c3)cc(N3CCCC[C@H]3CCO)nc12 (max 1 µM) :: -0.21 GR
CN1CCN(CCOc2cc(OC3CCOCC3)c3c(Nc4c(Cl)ccc5c4OCO5)ncnc3c2)CC1 [Saracatinib/AZD0530] (max 10 µM) :: 0.236 GR
COc1cccc(OCCCN)c1-c1cc(Nc2cnc(C#N)cn2)n[nH]1 :: -0.112 GR
O=C(CCCCCCC(=O)Nc1ccccc1)NO [Vorinostat] (max 10 µM) :: -0.0664 GR
O=C(c1cc(Cc2n[nH]c(=O)c3ccccc23)ccc1F)N1CCN(C(=O)C2CC2)CC1 [Olaparib/AZD2281] (max 10 µM) :: 0.75 GR
Cc1nc(-c2cn3c(n2)-c2ccc(-c4cnn(C(C)(C)C(N)=O)c4)cc2OCC3)n(C(C)C)n1 [Taselisib/GDC0032] (max 10 µM) :: -0.0501 GR
